For each record, write down the corresponding AC50.
Test system: HTT CJ mRNA
EXPERIMENTAL PROTOCOL: RT-qPCR splicing assay, HTT canonical junction (CJ) mRNA decrease
Format: cell-based
RUN CONDITIONS: A673 or K562 cells, 24 hours compound treatment, top dose 10 uM; concentration having 50% response in CJ decrease
Protocol: Compounds described herein were used to modulate RNA transcript abundance in cells. The expression of a target mRNA was measured by detecting the formation of an exon-exon junction in the canonical transcript (CJ). A compound mediated exon-inclusion event was detected by observing an increase in formation of a new junction with an alternative exon (AJ). […] After treatment, the levels of the HTT mRNA targets were determined from each sample of cell lysate by cDNA synthesis followed by qPCR. […]

For the compound Cc1cn2cc(-n3cnc4ccc(N(C)C5CCNCC5)cc4c3=O)cc(F)c2n1 [Compound 200] , give its measured AC50 value.
> 10 µM

For the compound Cc1cn2cc(-n3cnc4ccc(N5CCN(C)CC5)cc4c3=O)cc(F)c2n1 [Compound 197] , give its measured AC50 value.
1 to 10 µM

For the compound Cn1cc2cc(-n3cnc4ccc(C5=CCNCC5)cc4c3=O)ccc2n1 [Compound 151] , give its measured AC50 value.
> 10 µM

For the compound Cc1cc(-c2ccc3ncn(C4CCN(C)CC4)c(=O)c3c2)cc2cn(C)nc12 [Compound 170] , give its measured AC50 value.
> 10 µM

For the compound CN1CCN(c2ccc3ncn(-c4ccc5nn(C)cc5c4)c(=O)c3c2)CC1 [Compound 154] , give its measured AC50 value.
> 10 µM

For the compound CN1[C@H]2CC[C@@H]1C=C(c1ccc3ncn(-c4ccc5nn(C)cc5c4)c(=O)c3c1)C2 [Compound 168] , give its measured AC50 value.
> 10 µM

For the compound Cc1cc(-c2nc3cc(N4CCNCC4)ccc3c(=O)[nH]2)cc2cn(C)nc12 [Compound 213] , give its measured AC50 value.
> 10 µM

For the compound Cc1cc(-c2ccc3c(=O)[nH]c(N4CCN(C)CC4)nc3c2)cc2cn(C)nc12 [Compound 212] , give its measured AC50 value.
1 to 10 µM

For the compound Cc1cn2cc(-n3cnc4ccc(N5CCNCC5)cc4c3=O)cc(F)c2n1 [Compound 195] , give its measured AC50 value.
> 10 µM

For the compound CN1CCN(c2ccc3ncn(-c4cc(F)c5nn(C)cc5c4)c(=O)c3c2)CC1 [Compound 194] , give its measured AC50 value.
1 to 10 µM

For the compound Cc1cc(-c2nc3cc(N4CCN(C)CC4)ccc3c(=O)[nH]2)cc2cn(C)nc12 [Compound 214] , give its measured AC50 value.
> 10 µM

For the compound Cc1cc(-c2ccc3c(=O)[nH]c(N4CCNCC4)nc3c2)cc2cn(C)nc12 [Compound 211] , give its measured AC50 value.
> 10 µM

For the compound Cn1cc2cc(-n3cnc4ccc(N5CCNCC5)cc4c3=O)ccc2n1 [Compound 155] , give its measured AC50 value.
> 10 µM

For the compound Cc1cn2nc(-n3cnc4ccc(N5CCNCC5)cc4c3=O)cc(C)c2n1 [Compound 201] , give its measured AC50 value.
> 10 µM

For the compound Cn1cc2cc(-n3cnc4ccc(N5CCNCC5)cc4c3=O)cc(F)c2n1 [Compound 196] , give its measured AC50 value.
> 10 µM

For the compound Cc1cn2nc(-n3cnc4ccc(N5CCN(C)CC5)cc4c3=O)cc(C)c2n1 [Compound 202] , give its measured AC50 value.
1 to 10 µM

For the compound CN1CCC(Nc2ccc3ncn(-c4ccc5nn(C)cc5c4)c(=O)c3c2)CC1 [Compound 171] , give its measured AC50 value.
> 10 µM
